System: Jurkat
assay.comment: Growth inhibition of human Jurkat cells after 24 hrs
Type: functional, cell-based
reported.metric: pIC50
Keep in mind that pIC50 stands for -log10 of concentration in molar terms.

Which pIC50 is listed for "C#Cc1cccc(Nc2ncnc3cc(OCCOC)c(OCCOC)cc23)c1" ?
5.70
